system: MOLT-4 cells; assay: MOLT-4 cell viability, MTT assay; format: cell-based; conditions: Homo sapiens, MOLT-4, 48 h, 48 h exposure
Outcome Measure: IC50 (nM)
// return numeric value only (unit: nM, not printed)

Item CCN(CC)CCNCC(O)CCCN(c1cc(C)c(Nc2nc3ccccc3s2)nn1)c1nc(C(=O)O)c(CCCOc2ccc(C#CCN(C)C)cc2F)s1 (stereo not drawn) [Example 170] ; assay system MOLT-4 cells; IC50 reported as 154

Tested system MOLT-4 cells; IC50 recorded for Cc1cc(N(CCCC(O)CNCCN2CCCCC2)c2nc(C(=O)O)c(CCCOc3ccc(C#CCN(C)C)cc3F)s2)nnc1Nc1nc2ccccc2s1 (stereo not drawn) [Example 173] was 127

Recorded IC50 for Cc1cc(N(CCCC(O)C[N+]2(C)CCN(C)CC2)c2nc(C(=O)[O-])c(CCCOc3ccc(C#CCN(C)C)cc3F)s2)nnc1Nc1nc2ccccc2s1 (stereo not drawn) [Example 221] on MOLT-4 cells was 29.5

Fill in: MOLT-4 cells IC50 for CNCC#Cc1ccc(OCCCc2sc(N(CCCC(O)CN(C)C)c3cc(C)c(Nc4nc5ccccc5s4)nn3)nc2C(=O)O)c(F)c1 (stereo not drawn) [Example 193] = 92.5

Given the compound Cc1cc(N(C)c2nc(C(=O)O)c(C3CCN(Cc4ccccc4)CC3)s2)nnc1Nc1nc2ccccc2s1 [Example 86] and test system MOLT-4 cells, the measured IC50 is 14600

Tested on MOLT-4 cells: Cc1cc(N(CCCCCNCCN2CCCCC2)c2nc(C(=O)O)c(CCCOc3ccc(C#CCN(C)C)cc3F)s2)nnc1Nc1nc2ccccc2s1 [Example 187] . Observed IC50: 103

CNCC#Cc1ccc(OCCCc2sc(N(CCCCC[N+](C)(C)C)c3cc(C)c(Nc4nc5ccccc5s4)nn3)nc2C(=O)O)c(F)c1 [Example 219] tested on MOLT-4 cells gave IC50: 1270

MOLT-4 cells data for COC(COc1ccc(C#CCN(C)C)cc1F)Cc1sc(N(C)c2cc(C)c(Nc3nc4ccccc4s3)nn2)nc1C(=O)O (stereo not drawn) [Example 183] ; its IC50: 46.5

Known value: MOLT-4 cells IC50 of the compound CNCC#Cc1ccc(OCCCc2sc(N(C)c3cc(C)c(Nc4nc5ccccc5s4)nn3)nc2C(=O)O)c(F)c1 [Example 73] equals 1.51

Let me check: Cc1cc(N(C)c2ccc(-c3cnn(CC45CC6(C)CC(C)(C4)CC(OCCNCCC(=O)O)(C6)C5)c3C)c(C(=O)O)n2)nnc1Nc1nc2ccccc2s1 [Example 271] , system MOLT-4 cells, measured IC50 is 30.8

# IC50 measured on MOLT-4 cells for item O=C(O)c1csc(Nc2nnc(Nc3nc4ccccc4s3)c3c2CCCC3)n1 [Example 17] = 7880

Entry CNCCN(C)CCCCCN(c1cc(C)c(Nc2nc3ccccc3s2)nn1)c1nc(C(=O)O)c(CCCOc2ccc(C#CCN(C)C)cc2F)s1 [Example 190] , tested on MOLT-4 cells, has a reported IC50 of 54.9

Simply: Cc1c(-c2sc(Nc3ccc(Nc4nc5ccccc5s4)nn3)nc2C(=O)O)cnn1CC12CC3CC(CC(C3)C1)C2 [Example 32] , MOLT-4 cells, IC50 = 13300

Field IC50 (MOLT-4 cells), entry CNCC#Cc1ccc(OC/C(C)=C/c2sc(N(C)c3cc(C)c(Nc4nc5ccccc5s4)nn3)nc2C(=O)O)c(F)c1 [Example 174] : 1660

IC50 for MOLT-4 cells with input Cc1cc(N(C)c2nc(C(=O)O)c(CCCOc3ccc(C#CCN(C)CCO)cc3F)s2)nnc1Nc1nc2ccccc2s1 [Example 76] equals 2.37

C/C(=C\c1sc(N(C)c2cc(C)c(Nc3nc4ccccc4s3)nn2)nc1C(=O)O)COc1ccccc1 [Example 162] tested on MOLT-4 cells gave IC50: 3170

Measured on MOLT-4 cells, Cc1cc(N(CCCCNCCN2CCN(C)CC2)c2nc(C(=O)O)c(CCCOc3ccc(C#CCN(C)C)cc3F)s2)nnc1Nc1nc2ccccc2s1 [Example 168] has a documented IC50 of 178
